methodSummary: Quantitative High-Throughput drug screen in 47 multiple myeloma cell lines against the NCATS MIPE library collection: KMM1_JCRB cell viability assay (AID 1918960); note: nearly all actives have a fitted effect of over 30% in size
details: KMM1 myeloma viability, CellTiter-Glo ATP luminescence, 48 h; series mostly up to 45.8 µM
Records with an inconclusive call do not appear. Calls of active or inactive are those of the source. Calls come from the whole dose curve; as a rule, active = well fitted cell-killing curve with a large enough effect; inconclusive = small, poorly fitted or top-dose-only effect, or effect the other way; inactive = no such curve, though single readings can be large or run the other way.
Classes used: active, inactive

{"columns": ["compound", "assignedClass"],
 "data": [
  ["C[C@H]1C[C@H]2[C@@H]3CCC4=CC(=O)C=C[C@]4(C)[C@@H]3C(=O)C[C@]2(C)[C@@]1(O)C(=O)CO", "inactive"],
  ["CN(N=O)C(=O)N[C@H]1C(O)OC(CO)[C@@H](O)[C@H]1O (some centres undefined)", "inactive"],
  ["O=C(Nc1cccc(Nc2ncc(Br)c(NCCc3cnc[nH]3)n2)c1)N1CCCC1", "inactive"],
  ["Cc1cnc(Nc2ccc(N3CCN(C)CC3)cc2)nc1Nc1cccc(S(=O)(=O)NC(C)(C)C)c1", "active"],
  ["C[C@H]1[C@@H](OC(=O)CCC(=O)O)O[C@@H]2O[C@@]3(C)CC[C@@H]4[C@H](C)CC[C@@H]1[C@@]24OO3", "active"],
  ["C[C@H](NCc1ccc2c(c1)nc(NC(=O)c1ccc(-c3cn[nH]c3)s1)n2CCc1ccccc1)C(C)(C)C", "active"],
  ["C[C@H](O)[C@@H]1C(=O)N2C(C(=O)O)=C(S[C@@H]3CN[C@H](CNS(N)(=O)=O)C3)[C@@H](C)[C@@H]12", "inactive"],
  ["COc1cc2ncnc(Nc3cccc(Br)c3)c2cc1OC", "active"],
  ["O=C1NC(O)CCN1[C@@H]1O[C@H](CO)[C@H](O)[C@H]1O (some centres undefined)", "inactive"]
]}

###

Test system: NIH3T3
methodSummary: Cytotoxic Profiling of Annotated Libraries Using Quantitative High-Throughput Screening (AID 1296008); note: % is set by controls: 0 for no effect and ±100 for the full control effect; nearly all actives have a fitted effect of over 60% in size
details: Five cell lines viability, CellTiter-Glo ATP luminescence, 48-72 h; active compounds read low
Results filed as inconclusive are left out.
propertyLabel: max response (%)

{"columns": ["compound", "propertyLabel", "experimentalResult"],
 "data": [
  ["C[C@H]1O[C@H](O[C@H]2[C@H](O)[C@@H](O)[C@@H](O[C@H]3[C@H](O)[C@@H](O)C(O)O[C@H]3CO)O[C@H]2CO)[C@H](O)[C@@H](O)[C@H]1N[C@H]1C=C(CO)[C@@H](O)[C@H](O)[C@@H]1O (stereo partly specified)", "max response", -1.18],
  ["Cc1ccccc1C(=O)Nc1ccc(C(=O)N2CCCC(O)c3cc(Cl)ccc32)c(C)c1 (stereo unspecified)", "max response", -21],
  ["c1coc(CNc2ncnc3nc[nH]c23)c1", "max response", 0.142],
  ["C=C1C[C@@]2(O)O[C@@]3(C[C@H]2C(C)C)[C@H](C)CC[C@H]13", "max response", 2.78],
  ["CC(=O)N[C@@H]1[C@H](O[C@@H]2c3ccc(c(Cl)c3)Oc3cc4cc(c3O[C@H]3O[C@H](CO)[C@@H](O)[C@H](O)[C@H]3NC(=O)CCCCCCCC(C)C)Oc3ccc(cc3Cl)C[C@H]3NC(=O)[C@H](N)c5ccc(O)c(c5)Oc5cc(O)cc(c5)[C@H](NC3=O)C(=O)N[C@H]4C(=O)N[C@H]3C(=O)N[C@@H]2C(=O)N[C@@H](C(=O)O)c2cc(O)cc(O[C@H]4O[C@H](CO)[C@@H](O)[C@H](O)[C@H]4O)c2-c2cc3ccc2O)O[C@H](CO)[C@@H](O)[C@@H]1O", "max response", 4.41],
  ["C[C@H](NC(=O)Cc1cc(F)cc(F)c1)C(=O)N[C@H](C(=O)OC(C)(C)C)c1ccccc1", "max response", -8.45]
]}
